Sourced from patent US20160237059A1

Form field: IC50 (one value per entry).
Molecular target: human CCR2 (Homo sapiens, UniProt P41597)
Sequence (P41597 1-360 isoform P41597-2): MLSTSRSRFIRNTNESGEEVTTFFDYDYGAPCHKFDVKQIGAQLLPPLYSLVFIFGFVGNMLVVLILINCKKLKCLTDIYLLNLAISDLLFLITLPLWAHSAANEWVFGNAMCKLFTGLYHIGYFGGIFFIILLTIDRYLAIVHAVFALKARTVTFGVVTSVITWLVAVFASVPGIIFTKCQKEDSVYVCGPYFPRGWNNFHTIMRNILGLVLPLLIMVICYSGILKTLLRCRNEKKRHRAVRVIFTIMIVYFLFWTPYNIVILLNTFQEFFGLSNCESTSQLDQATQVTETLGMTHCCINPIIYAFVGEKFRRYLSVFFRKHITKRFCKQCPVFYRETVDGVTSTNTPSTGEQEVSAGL
Assay: Functional Ca2+ release test (B-1)
Conditions: Chem-1 cell line transfected with human CCR2; 50% inhibition of the MCP-1 effect, MCP-1 at EC50 (about 5 nM); in some cases means of several determinations
Give your result in nM as a bare value.

[
  {
    "Input smiles": "Nc1ccnc(-c2nc(C(F)(F)F)c(Oc3ccc(Cl)c(Cl)c3)c(=O)[nH]2)c1",
    "Test value": 3.2
  },
  {
    "Input smiles": "CC(C)(C)Oc1cccc(-c2nc(C(F)(F)F)c(Oc3ccc(Cl)c(C(F)(F)F)c3)c(=O)[nH]2)n1",
    "Test value": 96
  },
  {
    "Input smiles": "O=c1[nH]c(-c2ncccc2C(F)(F)F)nc(C(F)(F)F)c1Oc1ccc(Cl)c(Cl)c1",
    "Test value": 27
  },
  {
    "Input smiles": "Cc1ccc(-c2nc(C(F)(F)F)c(Cc3ccc(Cl)c(Cl)c3)c(=O)[nH]2)nc1",
    "Test value": 9.7
  },
  {
    "Input smiles": "O=c1[nH]c(-c2ccncc2Cl)nc(C(F)(F)F)c1Oc1ccc(Cl)c(Cl)c1",
    "Test value": 2.9
  }
]

Give the measured IC50 of O=c1[nH]nc(Cc2nc(C(F)(F)F)c(Cc3ccc(Cl)c(Cl)c3)c(=O)[nH]2)[nH]1 .
58

Give the measured IC50 of CN(C)c1cccc(-c2nc(C(F)(F)F)c(Oc3ccc(Cl)c(C(F)(F)F)c3)c(=O)[nH]2)n1 .
14

Give the measured IC50 of COc1cccnc1-c1nc(C(F)(F)F)c(Oc2ccc(C)c(Cl)c2)c(=O)[nH]1 .
1.7

Give the measured IC50 of O=c1[nH]c(-c2cc(C3CC3)on2)nc(C(F)(F)F)c1Oc1ccc(Cl)c(C(F)(F)F)c1 .
3.5

Give the measured IC50 of COc1ncccc1-c1nc(C(F)(F)F)c(Oc2ccc(Cl)c(Cl)c2)c(=O)[nH]1 .
1.5

Give the measured IC50 of Cn1nccc1-c1nc(C(F)(F)F)c(Oc2ccc(Cl)c(Cl)c2)c(=O)[nH]1 .
38

Give the measured IC50 of COc1cncnc1-c1nc(C(F)(F)F)c(Oc2ccc(Cl)c(C(F)(F)F)c2)c(=O)[nH]1 .
0.5

Give the measured IC50 of O=c1[nH]c(-c2ncc(C(F)(F)F)cc2Cl)nc(C(F)(F)F)c1Cc1ccc(Cl)c(Cl)c1 .
28

Give the measured IC50 of O=c1[nH]c(Nc2cn[nH]c2)nc(C(F)(F)F)c1Cc1ccc(Cl)c(C(F)(F)F)c1 .
41

Give the measured IC50 of COc1nn(C)cc1-c1nc(C(F)(F)F)c(Oc2ccc(Cl)c(C(F)(F)F)c2)c(=O)[nH]1 .
20

Give the measured IC50 of COc1ccc2c(-c3nc(C(F)(F)F)c(Oc4ccc(Cl)c(C(F)(F)F)c4)c(=O)[nH]3)noc2c1 .
81
